Parameter: EC50 of ADCC (NFAT-CD16 reporter), MCF-7. Scope: all listed entries.
Molecular target: T1, human Trop-2 expressed on cell surface (human, UniProt P09758 27-323)
T1 sequence (looked up): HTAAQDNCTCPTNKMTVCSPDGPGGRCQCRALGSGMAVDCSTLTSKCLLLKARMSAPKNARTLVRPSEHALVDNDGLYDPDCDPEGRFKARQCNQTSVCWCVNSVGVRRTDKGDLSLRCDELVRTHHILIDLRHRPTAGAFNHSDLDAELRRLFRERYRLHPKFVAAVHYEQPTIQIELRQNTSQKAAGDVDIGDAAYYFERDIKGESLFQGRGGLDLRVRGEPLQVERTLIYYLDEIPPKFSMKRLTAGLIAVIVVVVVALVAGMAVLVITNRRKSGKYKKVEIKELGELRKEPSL
Experiment: cell-based or functional assay
Please reply with the bare figure in nM and do not write the unit itself.

See these solved cases before continuing.
INSERT INTO assay_data (binder, endpoint_value) VALUES
  ('5D4 (antibody, V domains shown, Rabbit-derived clone; LEM construct: VH + rabbit IgG CH1 + human IgG1 CH2-CH3) VH: QQLEESGGGLVKPEGSLTLTCKGSGFDFSGTYWMWWVRQAPGKGLEWIACIYVGSGSSTYYASWAKGRFTISSTSSTAVTLQATSLTAADTATYFCARGATNNVFMNYFNLWGPGTLVTVSS VL: FEMTQTPSSVSEPVGGTVTIKCQASEDISSNLGWYQQKPGQPPKLLIYGASTLASGVPSRFKGSGSGTEFTLTISDLECADAATYYCQTSYYIDDGVNGFGGGTEVVVK', 0.57),
  ('74F11/15F5 (antibody, human IgG1, V domains shown, LEM construct: VH + rabbit IgG CH1 + human IgG1 CH2-CH3) VH: QEQLKESGGGLVQPGGSLKLSCKASGFDFNNYGMSWVRQAPGKGLEWIAYIYPAFHNTYYANWVNGRFTISSDNAQNTVDLQLNSLTAADTATYFCARDAGSTDYNFNLWGPGTLVTVSS VL: DVVMTQTPASVEAAVGGTVTIKCQASEDIERYLAWYQQKPGQPPKLLIYEASKLPSGVSSRFSGSGYGTEFTLTISGVECADAATYYCQQALTIGYVDNPFGGGSEVVVK', 0.27),
  ('63H3 (antibody, V domains shown, Rabbit-derived clone; LEM construct: VH + rabbit IgG CH1 + human IgG1 CH2-CH3) VH: QEQLKESGGGLVQPGGSLKLSCKASGFDFNSYGVSWVRQAPGKGLEWIAYIYPAFHNAYYANWVNGRFTISSDNAQNTVDLQLNSLTAADTATYFCARDAGGTDYNYNLWGPGTLVTVSS VL: DVVMTQTPASVEVAVGGTVTLKCQASEDIESYSAWYQQKPGQPPNLLIYEASKLASGVSSRFSGSGYGTEFTLTISGVECADAATYYCQQALTIGNVDNPFGGGSEVVVR', 0.17);

// below: EC50 of ADCC (NFAT-CD16 reporter), MCF-7 requested for another binder
# EC50 of ADCC (NFAT-CD16 reporter), MCF-7 lookup, item 9D7 (antibody, V domains shown, Rabbit-derived clone; LEM construct: VH + rabbit IgG CH1 + human IgG1 CH2-CH3) VH: QSLEESGGDLVQPGASLTLTCKASGFDLNNYSILWVRQAPGKGLEWIGCIYISGGSTYYANWAKGRFAISKTSSTTVTLQMTSLTAADTATYFCARDDGTASYYLNLWGPGTLVTVSS VL: YDMTQTPASVSEPVGGTVTIKCQASEDIYKLLAWYQQKPGQPPKLLIYAASDLESGVPSRFKGRGSGTDYTLTISDLECADAATYYCQQAYTIGNIDNSFGGGTEVVVK
0.28
